system: Saccharomyces cerevisiae BY4741 SeMeCo community; assay: z-score of subpopulation abundance vs DMSO median, subpopulation auxotrophic for LM; higher = larger share of this subpopulation than in DMSO controls; conditions: 10 µM; 24 h; SM minimal medium; subpopulation (auxotrophy): LM
Counter-ions that a name gives are not always drawn.
Listing of entries alongside the reported z-score of subpopulation abundance.
# answer = number (no unit)

Example results:
# molecule, study target, z-score of subpopulation abundance
data = [
    ("CCOC(=O)C1=C(C)NC(C)=C(C(=O)OCC)C1c1ccccc1/C=C/C(=O)OC(C)(C)C [Lacidipine]", "Saccharomyces cerevisiae BY4741 SeMeCo community", 1.6),
    ("OC(CCCN1CCCCC1)(c1ccccc1)c1ccccc1 [Diphenidol HCl]", "Saccharomyces cerevisiae BY4741 SeMeCo community", -0.56),
    ("C#C[C@]1(O)CC[C@H]2[C@@H]3CCC4=Cc5oncc5C[C@]4(C)[C@H]3CC[C@@]21C [Danazol]", "Saccharomyces cerevisiae BY4741 SeMeCo community", 0.04),
    ("O=C(O)Cc1ccccc1Nc1c(Cl)cccc1Cl [Diclofenac Sodium]", "Saccharomyces cerevisiae BY4741 SeMeCo community", -0.23),
    ("CN1CCN2c3ncccc3Cc3ccccc3C2C1 (stereo unspecified) [Mirtazapine]", "Saccharomyces cerevisiae BY4741 SeMeCo community", -0.11),
    ("O=S1(=O)CCN(CN2CCS(=O)(=O)NC2)CN1 [Taurolidine]", "Saccharomyces cerevisiae BY4741 SeMeCo community", -0.78),
]

Ask | Request the reported z-score of subpopulation abundance associated with CO/N=C(\C(=O)N[C@@H]1C(=O)N2C(C(=O)[O-])=C(C[N+]3(C)CCCC3)CS[C@H]12)c1csc(N)n1 [Cefepime Dihydrochloride Monohydrate]
Reply | 0.72

Ask | Also O=c1n(CCCN2CCN(c3cccc(Cl)c3)CC2)nc2ccccn12 [Trazodone HCl] , if possible.
Reply | -0.41

Ask | Also check CCCNC(C)C(=O)Nc1ccccc1C (stereo unspecified) [Prilocaine hydrochloride]
Reply | 0.83

Ask | Param item: CC[C@H]1OC(=O)[C@H](C)[C@@H](O[C@H]2C[C@@](C)(OC)[C@@H](O)[C@H](C)O2)[C@H](C)[C@@H](O[C@@H]2O[C@H](C)C[C@H](N(C)C)[C@H]2O)[C@](C)(O)C[C@@H](C)CN(C)[C@H](C)[C@@H](O)[C@]1(C)O [Azithromycin]
Reply | 0.27

Ask | Request: Oc1ccc([C@H]2COc3cc(O)ccc3C2)cc1 [Equol]
Reply | 0.45

Ask | Entry to check: C[C@@H](c1nc(-c2ccc(C#N)cc2)cs1)[C@](O)(Cn1cncn1)c1cc(F)ccc1F [Isavuconazole]
Reply | 1.61

Ask | Then what about the molecule NC[C@H]1O[C@H](O[C@H]2[C@H](O)[C@@H](O[C@H]3O[C@H](CO)[C@@H](O)[C@H](N)[C@H]3O)[C@H](N)C[C@@H]2N)[C@H](O)[C@@H](O)[C@@H]1O [Kanamycin sulfate] ?
Reply | 1.55

Ask | Let us now turn to COc1ccc(Cl)cc1C(=O)NCCc1ccc(S(=O)(=O)NC(=O)NC2CCCCC2)cc1 [Glyburide (Glibenclamide)]
Reply | 1.74

Ask | Another: CCCOc1ccc2[nH]c(NC(=O)OC)nc2c1 [Oxibendazole]
Reply | 0.57

Ask | Do the same for C1N2CN3CN1CN(C2)C3 [Methenamine] please
Reply | 0.49

Ask | Can you handle O=C(O[C@@H]1C[C@@H]2C[C@H]3C[C@H](C1)N2CC3=O)c1c[nH]c2ccccc12 [Dolasetron Mesylate] next?
Reply | 0.31

Ask | Try this molecule next: Cc1cc2c(s1)Nc1ccccc1N=C2N1CCN(C)CC1 [Olanzapine]
Reply | 0.65

Ask | Please answer likewise for Cc1cccc(C)c1NC(=O)C1CCCCN1C (stereo unspecified) [Mepivacaine]
Reply | 0.4

Ask | Same lookup for CO/N=C(\C(=O)N[C@@H]1C(=O)N2C(C(=O)O)=C(CSC(=O)c3ccco3)CS[C@H]12)c1csc(N)n1 [Ceftiofur] , please.
Reply | -0.51
